# TEST DETAILS: In vivo pharmacokinetic study in SD rats
# CONDITION NOTES: Sprague-Dawley (SD), rat, plasma, 1 mg/kg, PO, fasting, clear, read-out: Cmax
Items are presented alongside their recorded Cmax.
Number in ng/mL, nothing else.

MOLECULE	UOM	MEAS VALUE
C[C@H](NC(=O)[C@@H]1C=C(c2ccc(Cl)cc2)CCN1)C(=O)N[C@@H]1CCc2nc(N)ccc21 (single isomer, unassigned) [Compound L066-IS-02]	ng/mL	1140
C[C@H](NC(=O)[C@@H]1C=C(c2ccc(F)c(F)c2)CCN1)C(=O)N[C@@H]1CCc2nc(N)ccc21 (single isomer, unassigned) [Compound L069-IS-02]	ng/mL	1190
C[C@H](NC(=O)[C@H]1C=C(c2ccccc2F)CCN1)C(=O)N[C@@H]1CCc2nc(N)ccc21 [Compound L082]	ng/mL	1430
C[C@H](NC(=O)[C@@H]1C=C(c2ccc(F)cc2F)CCN1)C(=O)N[C@@H]1CCc2nc(N)ccc21 (single isomer, unassigned) [Compound L076-IS-02]	ng/mL	1350

Fill blank: measured Cmax of the molecule C[C@H](NC(=O)[C@H]1C=C(c2cccc(F)c2F)CCN1)C(=O)N[C@@H]1CCc2nc(N)ccc21 [Compound L084] is ____.
2140

Also, C[C@H](NC(=O)[C@H]1C=C(c2cccc(F)c2)CCN1)C(=O)N[C@@H]1CCc2nc(N)ccc21 [Compound L083] please.
1090

Also, C[C@H](NC(=O)C1C=C(c2ccc(F)cc2)CCN1)C(=O)N[C@@H]1CCc2nc(N)ccc21 (single isomer, unassigned) [Compound L064-IS-02] please.
875
